# Tested on: JHOC9 cells
# Test: Cell permeability assay, live-cell confocal fluorescence microscopy
# Type: cell-based
# Test Context: 10 μM TAMRA-labelled peptide in medium, 2 h incubation, Hoechst 33342 in the final 30 min, PBS wash, TAMRA fluorescence read-out, qualitative
# Description: Live‐cell fluorescence microscopy studies were undertaken to assess the cell permeability of the synthesized TAMRA‐labelled linear and constrained peptides (Figure 7). Figure 7 Cell‐permeability studies for the linear and constrained peptides using JHOC9 cells. Images were taken on a Leica tandem confocal microscope using a 40 X objective. […]
Non-standard residues stand in square brackets, D forms with d. Residues, ends and D or L forms follow the SMILES beside them. *: point of attachment. 5TAMRA = CN(C)c1ccc2c(c1)Oc1cc(N(C)C)ccc1C21OC(=O)c2cc(C(=O)*)ccc21; Dap(N3) = [N-]=[N+]=NC[C@H](N)C(=O)O; Aha = [N-]=[N+]=NCC[C@H](N)C(=O)O; Ahx = NCCCCCC(=O)O
Experimental Endpoint: cell permeability

CSCC[C@H](NC(=O)[C@H](CCCCN)NC(=O)[C@H](CCCCN)NC(=O)[C@H](CCN=[N+]=[N-])NC(=O)[C@@H](NC(=O)CCCCCNC(=O)c1ccc2c(c1)C(=O)OC21c2ccc(N(C)C)cc2Oc2cc(N(C)C)ccc21)[C@@H](C)O)C(=O)N[C@@H](CCCNC(=N)N)C(=O)N[C@@H](CCCNC(=N)N)C(=O)N[C@@H](CCN=[N+]=[N-])C(=O)N[C@@H](CCCNC(=N)N)C(N)=O [Pep2] ({5TAMRA-Ahx}-T[Aha]KKMRR[Aha]R-NH2) = good cell permeability
CSCC[C@H](NC(=O)[C@H](CCCCN)NC(=O)[C@H](CCCCN)NC(=O)[C@H](CN=[N+]=[N-])NC(=O)[C@@H](NC(=O)CCCCCNC(=O)c1ccc2c(c1)C(=O)OC21c2ccc(N(C)C)cc2Oc2cc(N(C)C)ccc21)[C@@H](C)O)C(=O)N[C@@H](CCCNC(=N)N)C(=O)N[C@@H](CCCNC(=N)N)C(=O)N[C@@H](CN=[N+]=[N-])C(=O)N[C@@H](CCCNC(=N)N)C(N)=O [Pep1] ({5TAMRA-Ahx}-T[Dap(N3)]KKMRR[Dap(N3)]R-NH2) = good cell permeability

* * *

# Study System: mImportin α1 ΔIBB (Mus musculus, UniProt P52293)
# Test: Direct fluorescence polarisation (FP) binding assay
# Test Context: 60 nM TAMRA-labelled peptide, 15-point 2.0-fold serial dilutions of mImportin α1 ΔIBB, 20 mM HEPES pH 8, 200 mM NaCl, 15 min at room temperature, ex 540/em 590 nm, one-site model, triplicates, read-out: Kd, direct FP assay binding affinity
# Description: The unconstrained peptides Pep1 and Pep2, as well as four constrained peptides, were synthesized. Their binding affinities for mImportin α1 ΔIBB were evaluated in fluorescence polarization assays (Figure 5 C). […] Direct Fluorescence Polarisation Assay Dissociation constants (Kd) for the interaction of TAMRA-5-labelled stapled peptides with mImportin α1 ΔIBB were determined by direct fluorescence polarisation (FP) measurement. […]
Non-standard residues stand in square brackets, D forms with d. Residues, ends and D or L forms follow the SMILES beside them. *: point of attachment. 5TAMRA = CN(C)c1ccc2c(c1)Oc1cc(N(C)C)ccc1C21OC(=O)c2cc(C(=O)*)ccc21; Dap(N3) = [N-]=[N+]=NC[C@H](N)C(=O)O; Ahx = NCCCCCC(=O)O
Experimental Endpoint: pKd
pKd here is simply -log10 of the concentration when that concentration is written in mol/L.

Which pKd value belongs to "CSCC[C@@H]1NC(=O)[C@H](CCCCN)NC(=O)[C@H](CCCCN)NC(=O)[C@@H](NC(=O)[C@@H](NC(=O)CCCCCNC(=O)c2ccc3c(c2)C(=O)OC32c3ccc(N(C)C)cc3Oc3cc(N(C)C)ccc32)[C@@H](C)O)Cn2cc(nn2)CCCNC(=O)NCCCc2cn(nn2)C[C@@H](C(=O)N[C@@H](CCCNC(=N)N)C(N)=O)NC(=O)[C@H](CCCNC(=N)N)NC(=O)[C@H](CCCNC(=N)N)NC1=O" ?
4.25

Which pKd value belongs to "CSCC[C@@H]1NC(=O)[C@H](CCCCN)NC(=O)[C@H](CCCCN)NC(=O)[C@@H](NC(=O)[C@@H](NC(=O)CCCCCNC(=O)c2ccc3c(c2)C(=O)OC32c3ccc(N(C)C)cc3Oc3cc(N(C)C)ccc32)[C@@H](C)O)Cn2cc(nn2)CNC(=O)NCc2cn(nn2)C[C@@H](C(=O)N[C@@H](CCCNC(=N)N)C(N)=O)NC(=O)[C@H](CCCNC(=N)N)NC(=O)[C@H](CCCNC(=N)N)NC1=O" ?
4.02

Which pKd value belongs to CSCC[C@H](NC(=O)[C@H](CCCCN)NC(=O)[C@H](CCCCN)NC(=O)[C@H](CN=[N+]=[N-])NC(=O)[C@@H](NC(=O)CCCCCNC(=O)c1ccc2c(c1)C(=O)OC21c2ccc(N(C)C)cc2Oc2cc(N(C)C)ccc21)[C@@H](C)O)C(=O)N[C@@H](CCCNC(=N)N)C(=O)N[C@@H](CCCNC(=N)N)C(=O)N[C@@H](CN=[N+]=[N-])C(=O)N[C@@H](CCCNC(=N)N)C(N)=O [Pep1] ({5TAMRA-Ahx}-T[Dap(N3)]KKMRR[Dap(N3)]R-NH2) ?
5.69
